Taken from patent US8324268B2.

tested on: HIV-1NL4-3 wt; assay: Light assay with wild-type HI reporter virus in MT4 7F2 cells; type: cell-based; conditions: Human immunodeficiency virus 1, 2% FCS

| COMPOUND | EC50 [nM] |
| --- | --- |
| N#Cc1cc(-c2oc(C(=O)N3CNC(=O)C3)cc2-c2cccc(Cl)c2)ccc1F [Example 26] | 20 |
| O=C1CN(C(=O)c2cc(-c3cc(F)cc(Cl)c3)c(-c3cccc(Cl)c3)o2)CCN1 [Example 14] | 1 |
| N#Cc1cccc(-c2oc(C(=O)N3CNC(=O)C3)cc2-c2cc(F)cc(Cl)c2)c1 [Example 12] | 2 |
| O=C1CN(C(=O)c2cc(-c3cccc(Cl)c3)c(-c3ccc(F)c(F)c3)o2)CCN1 [Example 19] | 43 |

###

system: HIV-1NL4-3 wt; assay: Light assay with wild-type HI reporter virus in MT4 7F2 cells; type: cell-based; conditions: Human immunodeficiency virus 1, 2% FCS
EC50: recorded values

| COMPOUND | EC50 |
| --- | --- |
| N#Cc1cccc(-c2oc(C(=O)N3CCS(=O)(=O)C3)cc2-c2cc(F)cc(Cl)c2)c1 [Example 5] | < 1.5 nM |
| O=C(c1cc(-c2cc(F)cc(Cl)c2)c(-c2ccc(F)c(Cl)c2)o1)N1CC[S+]([O-])C1 (stereo not drawn) [Example 4] | < 1.5 nM |
| N#Cc1cc(F)cc(-c2cc(C(=O)N3CCNC(=O)C3)oc2-c2cccc(Cl)c2)c1 [Example 33] | < 1.5 nM |
